Would you kindly list pIC50 for each of these compounds?
target: full length human TREX1 (Homo sapiens, UniProt Q9NSU2); construct: N-terminally His-Tev tagged full length human TREX1; made in house; host or cells: E. coli; assay: hTREX1 Biochemical Assay (fluorescence, dsDNA substrate degradation); conditions: biochemical, read-out: hTREX1 IC50
Sequence (Q9NSU2 whole entry): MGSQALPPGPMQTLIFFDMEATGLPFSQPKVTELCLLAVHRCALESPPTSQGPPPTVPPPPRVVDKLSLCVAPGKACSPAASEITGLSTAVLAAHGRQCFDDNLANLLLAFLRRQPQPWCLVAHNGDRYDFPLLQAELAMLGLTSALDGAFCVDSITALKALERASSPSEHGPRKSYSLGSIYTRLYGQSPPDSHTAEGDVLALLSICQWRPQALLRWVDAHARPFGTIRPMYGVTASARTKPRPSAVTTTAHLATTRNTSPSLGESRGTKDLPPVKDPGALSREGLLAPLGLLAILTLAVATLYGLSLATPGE
pIC50: −log10 of the molar value.

Lab book: pIC50 of COCCn1cc(C(c2cc(F)c(F)cc2Cl)C(C)c2nc(C(=O)Nc3cnoc3)c(O)c(=O)n2C)cn1 (single isomer, unassigned) [Example 73 D1E2] noted as < 8.00

Lab book: pIC50 of COCCn1ncc(C(c2cc(F)ccc2Cl)C(C)c2nc(C(=O)Nc3cnoc3)c(O)c(=O)n2C)c1C (single isomer, unassigned) [Example 108 D2E2] noted as < 8.00

Lab book: pIC50 of COCCCn1cc(C(c2ccccc2C#N)C(C)c2nc(C(=O)Nc3cnoc3)c(O)c(=O)n2C)cn1 (single isomer, unassigned) [Example 24 D2E1] noted as < 8.00

Lab book: pIC50 of CC(c1nc(C(=O)Nc2cnoc2)c(O)c(=O)n1C)C(c1ccccc1C#N)c1cn(C)nc1C#N (single isomer, unassigned) [Example 10 D2E2] noted as < 8.00

Lab book: pIC50 of CCn1cc(C(c2cc(F)ccc2C#N)C(C)c2nc(C(=O)Nc3cnoc3)c(O)c(=O)n2C)cn1 (single isomer, unassigned) [Example 17 D2E1] noted as < 8.00

Lab book: pIC50 of COCCn1ncc(C(c2cc(F)ccc2C#N)C(C)c2nc(C(=O)Nc3cnoc3)c(O)c(=O)n2C)c1C (single isomer, unassigned) [Example 104 D1E1] noted as 8.00 to 9.00

Lab book: pIC50 of CCc1cnn(C(c2ccccc2Cl)C(C)c2nc(C(=O)Nc3cnoc3)c(O)c(=O)n2C)c1 (single isomer, unassigned) [Example 134 D1E2] noted as < 8.00

Lab book: pIC50 of CC(c1nc(C(=O)Nc2cnoc2)c(O)c(=O)n1C)C(c1ccccc1C#N)c1cn(C)nc1F (single isomer, unassigned) [Example 91 D1E2] noted as < 8.00

Lab book: pIC50 of COCCn1cc(C(c2ccccc2C#N)C(C)c2nc(C(=O)Nc3cnoc3)c(O)c(=O)n2C)cn1 (single isomer, unassigned) [Example 9 D1E1] noted as > 9.00

Lab book: pIC50 of Cc1nn(C)c(C)c1C(c1cc(F)ccc1C#N)C(C)c1nc(C(=O)Nc2cnoc2)c(O)c(=O)n1C (single isomer, unassigned) [Example 109 D1E2] noted as < 8.00

Lab book: pIC50 of CC(c1nc(C(=O)Nc2cnoc2)c(O)c(=O)n1C)C(c1cc(F)ccc1Cl)c1cn(C)nc1C#N (single isomer, unassigned) [Example 89 D1E2] noted as > 9.00

Lab book: pIC50 of Cc1cnc(C)c(C(c2ccccc2Cl)C(C)c2nc(C(=O)Nc3cnoc3)c(O)c(=O)n2C)n1 (single isomer, unassigned) [Example 120 D2E2] noted as < 8.00

Lab book: pIC50 of CC(c1nc(C(=O)Nc2cnoc2)c(O)c(=O)n1C)C(c1cnn(CCN(C)C)c1)c1ccccc1C#N (single isomer, unassigned) [Example 33 D2E1] noted as < 8.00

Lab book: pIC50 of CC(c1nc(C(=O)Nc2cnoc2)c(O)c(=O)n1C)C(c1cnn(CCCN(C)C)c1)c1ccccc1C#N (single isomer, unassigned) [Example 34 D1E1] noted as > 9.00

Lab book: pIC50 of CCn1cc(C(c2ccc(F)cc2C#N)C(C)c2nc(C(=O)Nc3cnoc3)c(O)c(=O)n2C)c(C)n1 (single isomer, unassigned) [Example 55 D1E1] noted as > 9.00

Lab book: pIC50 of Cc1ccn(C(c2cc(F)ccc2Cl)C(C)c2nc(C(=O)Nc3cnoc3)c(O)c(=O)n2C)n1 (single isomer, unassigned) [Example 146 D1E2] noted as < 8.00

Lab book: pIC50 of Cc1cnc(C(c2cc(F)ccc2Cl)C(C)c2nc(C(=O)Nc3cnoc3)c(O)c(=O)n2C)cn1 (single isomer, unassigned) [Example 117 D1E2] noted as > 9.00

Lab book: pIC50 of CC(c1nc(C(=O)Nc2cnoc2)c(O)c(=O)n1C)C(c1cnn(C)c1)c1ccc(F)cc1Cl (single isomer, unassigned) [Example 74 D1E2] noted as < 8.00

Lab book: pIC50 of CC(c1nc(C(=O)Nc2cnoc2)c(O)c(=O)n1C)C(c1cnn(CC(C)(C)O)c1)c1ccccc1Cl (single isomer, unassigned) [Example 86 D2E2] noted as < 8.00

Lab book: pIC50 of CC(c1nc(C(=O)Nc2cnoc2)c(O)c(=O)n1C)C(c1cnn(CCN2CCN(C)CC2)c1)c1ccccc1C#N (single isomer, unassigned) [Example 32 D2E1] noted as < 8.00

Lab book: pIC50 of CCn1cc(C(c2ccc(F)cc2C#N)C(C)c2nc(C(=O)Nc3cnoc3)c(O)c(=O)n2C)cn1 (single isomer, unassigned) [Example 16 D2E2] noted as < 8.00

Lab book: pIC50 of Cc1cnc(C)c(C(c2cc(F)ccc2Cl)C(C)c2nc(C(=O)Nc3cnoc3)c(O)c(=O)n2C)n1 (single isomer, unassigned) [Example 121 D2E1] noted as < 8.00

Lab book: pIC50 of COC(C)(C)Cn1cc(C(c2cc(F)ccc2Cl)C(C)c2nc(C(=O)Nc3cnoc3)c(O)c(=O)n2C)cn1 (single isomer, unassigned) [Example 93 D1E1] noted as 8.00 to 9.00
